protocol details: chemical genetic growth profiling, strain panel (AID 1159580);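 note: tested at 20 µM; growth read once vehicle control cultures reached saturation at 30 °C; 1 = growth at the plate median or of vehicle wells; lower values mean less growth of the strain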
assay context: S. cerevisiae deletion strains, growth OD, locus YBR229C, strain ROT2, hits give low values
The campaign covered roughly 5,500 compounds. About 2,000 (36%) were called active. Inconclusive results (about 18%) are left out. Some of the results follow.
rule met if normalized growth is below 1. rule not met if not; exact matches included in rule not met.

smiles code: O=C(O)c1cccnc1Nc1cccc(C(F)(F)F)c1
discrete label: rule met
--
smiles code: CC(=O)c1sc(SCc2ccc(Cl)cc2)c2c1CC(C)(C)CC2=O
discrete label: rule not met

###

protocol details: chemical genetic growth profiling, strain panel (AID 1159580);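 note: tested at 20 µM; growth read once vehicle control cultures reached saturation at 30 °C; 1 = growth at the plate median or of vehicle wells; lower values mean less growth of the strain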
assay context: S. cerevisiae deletion strains, growth OD, locus YLR384C, strain iki3, hits give low values
The campaign covered roughly 5,500 compounds. About 2,000 (36%) were called active. About 18% were inconclusive and are not listed. Some of the results follow.
parameter: normalized growth

compound: CNC[C@@H](O)c1ccc(O)c(O)c1
experimental value: 0.999

compound: C=C(C)[C@H]1CC=C(C(=O)O)CC1
experimental value: 0.986

compound: CC1(C)C(C(Cl)Cl)C2(Cl)C(Cl)C(Cl)C1(Cl)C2(Cl)Cl (centres undefined)
experimental value: 0.974

compound: CC(=O)Nc1cc([As](=O)(O)O)ccc1O
experimental value: 0.998

compound: CCCC(C)C1(CC)C(=O)N=C(S)NC1=O (centres undefined)
experimental value: 1

compound: CCN(CC)CCOc1ccc2c(c1)C(=O)c1cc(OCCN(CC)CC)ccc1-2
experimental value: 0.984

compound: C[n+]1cccc(C(=O)[O-])c1
experimental value: 0.961

compound: CCOC(=O)c1oc2c(OC)c(O)cc(O)c2c(=O)c1-c1cc(OC)c(OC)c(OC)c1
experimental value: 0.982

compound: CN(C)CCOC(C)(c1ccccc1)c1ccccn1 (centres undefined)
experimental value: 0.996

compound: CCCC(C)C1(CC)C(=O)NC(=O)NC1=O (centres undefined)
experimental value: 0.996

compound: O[N+]1=CC=CCC1=S.On1ccccc1=S.[Zn]
experimental value: 0.0637

compound: NCC(O)c1ccc(O)cc1 (centres undefined)
experimental value: 1

compound: COC(C)(C)CCC[C@H](C)C/C=C/C(C)=C/C(=O)OC(C)C
experimental value: 1

compound: CC(=O)c1c(O)c(C)c(O)c2c1OC1=CC(=O)C(C(C)=O)C(=O)C12C (centres undefined)
experimental value: 0.957

compound: C=CC(C)(O)CC/C=C(\C)CCC=C(C)C (centres undefined)
experimental value: 0.98

compound: CCCCC1=NC2(CCCC2)C(=O)N1Cc1ccc(-c2ccccc2-c2nn[nH]n2)cc1
experimental value: 1

compound: C1CCN2CC3CC(CN4CCCCC34)C2C1 (centres undefined)
experimental value: 1.02

compound: OC[C@@H](O)[C@@H](O[C@@H]1O[C@H](CO)[C@@H](O)[C@H](O)[C@H]1O)[C@H](O)[C@@H](O)CO
experimental value: 0.999

compound: O=C(O)C1=CCNCC1
experimental value: 1.01
